Tested on: A549 cells
ASSAY OVERVIEW: MTT cytotoxicity in A549 cells
Type: cell-based
ASSAY SETUP: Homo sapiens, A549, hypoxia 24 h then normoxia 72 h, read-out: IC50 A549 Hypoxia
MEASURED PROPERTY: log10 IC50 (log10 of the value in µM)

# MOLECULE, MEASURED TARGET, log10 IC50
rows = [
    ("Cc1ccc2c(OCc3cn(CCCO[C@H]4O[C@@H]5O[C@@]6(C)CC[C@H]7[C@H](C)CC[C@@H]([C@H]4C)[C@@]57OO6)nn3)cc(=O)oc2c1 [6k]", "A549 cells", 0.98),
    ("C[C@H]1[C@@H](OCCc2cn(Cc3cc4cc(Br)cc(Br)c4oc3=O)nn2)O[C@@H]2O[C@@]3(C)CC[C@H]4[C@H](C)CC[C@@H]1[C@@]24OO3 [2e]", "A549 cells", 1.90),
    ("Cc1ccc2oc(=O)cc(OCc3cn(CCCO[C@H]4O[C@@H]5O[C@@]6(C)CC[C@H]7[C@H](C)CC[C@@H]([C@H]4C)[C@@]57OO6)nn3)c2c1 [6p]", "A549 cells", 1.27),
    ("Cc1ccc2c(OCc3cn(CCCO[C@H]4O[C@@H]5O[C@@]6(C)CC[C@H]7[C@H](C)CC[C@@H]([C@H]4C)[C@@]57OO6)nn3)cc(=O)oc2c1C [6n]", "A549 cells", -1.41),
    ("C[C@H]1[C@@H](OCCCn2cc(COc3cc(=O)oc4ccccc34)nn2)O[C@@H]2O[C@@]3(C)CC[C@H]4[C@H](C)CC[C@@H]1[C@@]24OO3 [6j]", "A549 cells", 1.69),
    ("C[C@H]1[C@@H](OCc2cn(Cc3cc4cc(Br)cc(Br)c4oc3=O)nn2)O[C@@H]2O[C@@]3(C)CC[C@H]4[C@H](C)CC[C@@H]1[C@@]24OO3 [1e]", "A549 cells", 1.78),
]

---

Test system: HCT-116 cells
ASSAY OVERVIEW: MTT cytotoxicity in HCT-116 cells
Type: cell-based
ASSAY SETUP: Homo sapiens, HCT-116, hypoxia 24 h then normoxia 72 h, read-out: IC50 HCT-116 Hypoxia
pIC50: −log10 of the molar value.

# MOLECULE, SIGN, pIC50
measured = [
    ("C[C@H]1[C@@H](OCc2cn(Cc3cc4ccccc4oc3=O)nn2)O[C@@H]2O[C@@]3(C)CC[C@H]4[C@H](C)CC[C@@H]1[C@@]24OO3 [1a]", "=", 4.30),
    ("Cc1ccc2c(OCc3cn(CCCO[C@H]4O[C@@H]5O[C@@]6(C)CC[C@H]7[C@H](C)CC[C@@H]([C@H]4C)[C@@]57OO6)nn3)cc(=O)oc2c1C [6n]", "=", 4.47),
    ("Cc1ccc2c(OCc3cn(CCCO[C@H]4O[C@@H]5O[C@@]6(C)CC[C@H]7[C@H](C)CC[C@@H]([C@H]4C)[C@@]57OO6)nn3)cc(=O)oc2c1 [6k]", "=", 4.47),
    ("C[C@H]1[C@@H](OCCc2cn(Cc3cc4cc(Br)ccc4oc3=O)nn2)O[C@@H]2O[C@@]3(C)CC[C@H]4[C@H](C)CC[C@@H]1[C@@]24OO3 [2b]", "<", 4.00),
    ("C[C@H]1[C@@H](OCCn2cc(COc3cc(=O)oc4ccccc34)nn2)O[C@@H]2O[C@@]3(C)CC[C@H]4[C@H](C)CC[C@@H]1[C@@]24OO3 [5j]", "<", 4.00),
    ("C[C@H]1[C@@H](OCCc2cn(Cc3cc(=O)oc4cc(O)ccc34)nn2)O[C@@H]2O[C@@]3(C)CC[C@H]4[C@H](C)CC[C@@H]1[C@@]24OO3 [4f]", "<", 4.00),
]
